Sourced from PubChem BioAssay AID1159580

procedure-details: chemical genetic growth profiling, strain panel (AID 1159580);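 further: tested at 20 µM; growth read once vehicle control cultures reached saturation at 30 °C; 1 = growth at the plate median or of vehicle wells; lower values mean less growth of the strain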
conditions-used: S. cerevisiae deletion strains, growth OD, locus YOR231W, strain MKK1, hits give low values
Hit rate of the full screen: of about 5,500 compounds, about 2,000 (36%) were called active. Roughly 18% stayed inconclusive and do not appear here. This is one part of the list.
Exercise: state measured normalized growth for each of the compounds provided.
Please state the value as a number alone, without comment.

## Input Endpoint output: normalized growth of C[N+](C)(C)CC(=O)[O-] . Value?
## Output 0.986

## Input Endpoint output: normalized growth of Cc1cc(OC(=O)N2CCCCC2)c(C(C)C)cc1[N+](C)(C)C . Value?
## Output 0.999

## Input Endpoint output: normalized growth of CC(=O)O[C@H]1C(=O)[C@@]2(C)C([C@H](OC(=O)c3ccccc3)[C@]3(O)C[C@H](O)C(C)=C1C3(C)C)[C@]1(OC(C)=O)CO[C@@H]1C[C@@H]2O (some centres undefined) . Value?
## Output 0.973

## Input Endpoint output: normalized growth of Cc1c(C(=O)N2CCCCC2)cc(-c2ccccc2)n1-c1ccccc1 . Value?
## Output 0.823

----------
procedure-details: chemical genetic growth profiling, strain panel (AID 1159580);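 further: tested at 20 µM; growth read once vehicle control cultures reached saturation at 30 °C; 1 = growth at the plate median or of vehicle wells; lower values mean less growth of the strain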
conditions-used: S. cerevisiae deletion strains, growth OD, locus YER016W, strain bim1
Screen size: about 5,500 compounds; about 2,000 (36%) were called active. Roughly 18% stayed inconclusive and do not appear here. Rule as the data show it: active = normalized growth mostly below about 0.91 (no sharp cut-off); inconclusive = no clear call, values can overlap the other calls; inactive = mostly above about 0.92. Some of the results follow.
A correct response names exactly one class from active, inactive

## Input Query: recorded result category for CCN(CC)C(=S)SSC(=S)N(CC)CC in this test
## Output active

## Input Query: recorded result category for N#Cc1c(Cl)c(Cl)c(Cl)c(C#N)c1Cl in this test
## Output active

## Input Query: recorded result category for COc1ccc2c(c1)OC[C@@H](Cc1ccc(OC)c(OC)c1)[C@H]2O in this test
## Output inactive

----------
procedure-details: chemical genetic growth profiling, strain panel (AID 1159580);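 further: tested at 20 µM; growth read once vehicle control cultures reached saturation at 30 °C; 1 = growth at the plate median or of vehicle wells; lower values mean less growth of the strain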
conditions-used: S. cerevisiae deletion strains, growth OD, locus YDR137W, strain rgp1, hits give low values
Hit rate of the full screen: of about 5,500 compounds, about 2,000 (36%) were called active. Inconclusive results (about 18%) are left out. The list shows a part of the results.
Strictly below 0.9 in normalized growth: fulfilled. Otherwise: not fulfilled.

## Input Please let me know if CC(C)=CCc1c(O)cc2oc(C)cc(=O)c2c1O shows normalized growth below 0.9.
## Output fulfilled

## Input Please let me know if COc1cc(O)c(C(=O)c2ccccc2)cc1O shows normalized growth below 0.9.
## Output fulfilled

## Input Please let me know if CNC1(C)C2CCC(C2)C1(C)C (stereo unspecified) shows normalized growth below 0.9.
## Output not fulfilled

## Input Please let me know if C[C@@H]1O[C@@H](O[C@H]2[C@@H](Oc3cc(O)c4c(c3)O[C@H](c3ccc(O)cc3)CC4=O)O[C@H](CO)[C@@H](O)[C@@H]2O)[C@H](O)[C@H](O)[C@H]1O shows normalized growth below 0.9.
## Output not fulfilled

## Input Please let me know if NC(N)=Nc1nc(CSCCC(N)=NS(N)(=O)=O)cs1 shows normalized growth below 0.9.
## Output not fulfilled

## Input Please let me know if O=C(/C=C/c1ccccc1)O[C@H]1C[C@@H](O)[C@]2(O)C=CO[C@@H](O[C@@H]3O[C@H](CO)[C@@H](O)[C@H](O)[C@H]3O)[C@H]12 shows normalized growth below 0.9.
## Output not fulfilled

## Input Please let me know if Cc1cc(=O)c2c(O)cc(O)c(C)c2o1 shows normalized growth below 0.9.
## Output fulfilled

## Input Please let me know if O=C1CC(c2ccc(O)c(O)c2)Oc2cc(O)cc(O)c21 (stereo unspecified) shows normalized growth below 0.9.
## Output not fulfilled

## Input Please let me know if COC(=O)COc1cc(Cl)c(Cl)cc1Cl shows normalized growth below 0.9.
## Output fulfilled

## Input Please let me know if C1CCc2nnnn2CC1 shows normalized growth below 0.9.
## Output not fulfilled
